# Tested on: Noggin (protein binding on small-molecule microarray)
# ASSAY_NAME: Noggin binders on small-molecule microarray, primary screen, biochemical, 635/667 nm fluorescence (AID 1095);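 further: score merges 667 nm feature fluorescence with signal to noise over triplicate slides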
# MEASUREMENT_CONTEXT: 635 nm fluorescence, higher = more signal

COMPOUND	composite z-score
Cc1ccc(S[C@]2(C(=O)NCC(C)C)CC(=O)N(Cc3cc(C(F)(F)F)cc(C(F)(F)F)c3)[C@@H]2c2ccc(CO)cc2I)cc1	-2.5
CC(=O)NCCCC[C@@H]1NC(=O)[C@@H]2C[C@H](C(=O)NCCCCCCNC(=O)CS)[C@H](c3cccc(OCCO)c3)N2C1=O	0.452
Cc1ccc(S[C@]2(C(=O)NCCN3CCOCC3)CC(=O)N(Cc3ccccc3Cl)[C@@H]2c2ccc(CO)cc2)cc1	-0.157
CN1C(=O)C2C=CC(C(O)C3CC=CCC3)N(NC(=O)OC(C)(C)C)C2C1=O (configuration not stated)	0.532
COc1ccc([Si](C)(C)[C@@H]2[C@@H](CCO)O[C@]3(C(=O)N(Cc4ccc(N5C(=O)COc6ccccc65)cc4)c4ccccc43)[C@H]2C)cc1	1.17
COc1ccc([Si](C)(C)[C@@H]2[C@@H](CC(=O)N3Cc4ccccc4C[C@H]3CO)O[C@]3(C(=O)N(C)c4c(Br)cc(C)cc43)[C@H]2C)cc1	1.55
CCC(CC)C(O)C1C=CC2C(=O)N(C)C(=O)C2N1Nc1ccccc1 (configuration not stated)	-0.0929

###

# SUBJECT_OF_TEST: Luciferin 4-monooxygenase (Photinus pyralis)
# ASSAY_NAME: firefly luciferase enzyme inhibitors, primary screen, biochemical, luminescence, purified enzyme, 2006 set (AID 1141);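 further: cell-free assay with purified firefly luciferase at 100 ng per well in PBS; test concentration not given here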
# MEASUREMENT_CONTEXT: SteadyGlo luminescence, 30 min, called active from +8 up or from −8 down
The source made the active and inactive calls.
Outcome codes: active, inactive

COMPOUND	GROUP_LABEL
OC([C@@H]1CC(c2ccccc2)=NO1)[C@H]1CC(c2ccccc2)=NO1 (stereo partly specified)	inactive
C=CC[C@@]1(C(=O)NCc2ccccc2)N=C(c2ccc(OCCCO)cc2)O[C@@H]1c1ccccc1N=[N+]=[N-]	active
COc1ccc([Si](C)(C)[C@H]2[C@H](CC(=O)N3CCC[C@H]3CO)O[C@@]3(C(=O)N(Cc4cccc(N5C(=O)c6cccc7cccc5c67)c4)c4ccccc43)[C@@H]2C)cc1	inactive
CCCCCN1CC=CC23O[C@@H]4/C=C\CCCOC(=O)C4[C@H]2C(=O)N(C(CO)C(C)C)[C@@H]3C1=O (stereo partly specified)	inactive
COc1ccc([Si](C)(C)[C@H]2[C@H](CCO)O[C@@]3(C(=O)N(Cc4ccc(N5C(=O)COc6ccccc65)cc4)c4ccccc43)[C@@H]2C)cc1	inactive
O=C1[C@H]2C=C(Br)[C@H](C[C@@H]2OCCCCO)[C@@]12CO2	inactive
CC(C)[C@@H](CO)NC(=O)[C@H]1[C@@H](c2ccccc2)N(c2ccccc2)O[C@@H]1C	inactive
O=C1O[C@@H](c2ccccc2)[C@@H](c2ccccc2)N2[C@@H](c3ccc(OCCO)cc3)[C@]3(C(=O)Nc4ccccc43)[C@@H](C(=O)NC[C@H](O)c3ccccc3)[C@H]12	inactive
COCCOC(=O)N1C(=O)[C@@]2(c3cc(C#Cc4ccc(OC)cc4)ccc31)[C@H](c1ccccc1OCCO)N1[C@H](c3ccccc3)[C@H](c3ccccc3)OC(=O)[C@H]1[C@@H]2C(=O)N1CCN(c2ncccn2)CC1	inactive
CN1C(=O)C2C=CC(C(O)C3=C[C@H]4C[C@@H](C3)C4(C)C)N(Nc3ccccc3)C2C1=O (stereo partly specified)	inactive
O=C1O[C@H](c2ccccc2)[C@H](c2ccccc2)N2[C@H]1[C@@H](C(=O)Nc1nc3ccccc3s1)[C@]1(C(=O)Nc3ccc(C#CCCO)cc31)[C@H]2c1ccc(OCCO)cc1	inactive
C=CCOC(=O)[C@H]1[C@@H]2C(=O)O[C@@H](c3ccccc3)[C@@H](c3ccccc3)N2[C@@H](c2ccc(OCCOC(=O)[C@@H]3C[C@@H]4C(=O)N[C@@H](CCCC[N+](C)(C)C)C(=O)N4[C@@H]3c3ccc(O)cc3)cc2)[C@]12C(=O)Nc1ccccc12	inactive
COc1ccc([Si](C)(C)[C@@H]2[C@@H](CCO)O[C@]3(C(=O)N(Cc4ccc(N5C(=O)COc6ccccc65)cc4)c4ccccc43)[C@H]2C)cc1	inactive
CCOC(=O)C[C@H]1[C@H](OC(=O)Cc2ccc3c(c2)OCO3)[C@@H](NC(=O)c2ccc(-c3ccccc3)cc2)c2cc(OCCCO)ccc2N1C(=O)c1ccc2ccccc2n1	inactive
[N-]=[N+]=NCc1ccccc1[C@@H]1OC(c2ccc(OCCCO)cc2)=N[C@]1(CCS(=O)(=O)c1ccccc1)C(=O)NCc1ccccc1	inactive
CC1(C)[C@@H]2CC(C(O)C3C=CC4C(=O)N(c5ccccc5)C(=O)C4N3Nc3ccccc3)=C[C@H]1C2 (stereo partly specified)	inactive
C[N+](C)(C)CCCCNC(=O)[C@H]1C[C@H]2C(=O)N[C@@H](Cc3ccccc3)C(=O)N2[C@H]1c1ccc(O)cc1	inactive
C=CCOC(=O)[C@H]1[C@@H]2C(=O)O[C@@H](c3ccccc3)[C@@H](c3ccccc3)N2[C@@H](c2ccc(OCCOC(=O)[C@H]3C[C@H]4C(=O)N[C@@H](CC(C)C)C(=O)N4[C@H]3c3ccc(O)cc3)cc2)[C@]12C(=O)Nc1ccc(I)cc12	inactive
COc1ccc(CCNC(=O)[C@@]2(C)c3ccccc3C(=O)N(Cc3cc(F)cc(C(F)(F)F)c3)[C@H]2c2ccc(CO)cc2)cc1	inactive
C=CCN(Cc1ccccc1)C(=O)C(c1cccs1)N(CCOCCO)C(=O)/C=C\C(=O)O (stereo unspecified)	inactive
C=CCC(OC(C)=O)[C@@H]1[C@@H](N(Cc2ccc(-c3cccc(C(F)(F)F)c3)o2)C(=O)Cc2ccc(F)cc2)c2cc(OCCCO)ccc2N1C(=O)Cc1ccc(OC)cc1 (stereo partly specified)	inactive
O=C(c1ccccc1)N1Cc2ccccc2[C@@H]2OC(c3ccc(OCCCO)cc3)=N[C@]2(Cc2ccccc2)C1=O	inactive
C=CCNC(=O)[C@@H]1[C@H]2C(=O)O[C@H](c3ccccc3)[C@H](c3ccccc3)N2[C@H](c2ccc(OCCO)cc2)[C@@]12C(=O)Nc1ccc(C#Cc3ccc(OC)cc3)cc12	inactive
COc1ccc(C(O)C2C=CC3C(=O)N(C)C(=O)C3N2N2CCCCC2)c2ccccc12 (stereo unspecified)	inactive
C=CCNC(=O)[C@H]1[C@@H]2C(=O)O[C@@H](c3ccccc3)[C@@H](c3ccccc3)N2[C@@H](c2ccc(O)cc2)[C@]12C(=O)N(C(=O)OCCOC)c1ccc(C#CCNC(N)=O)cc12	inactive
O=C1C2C=CC(C(O)c3ccc(F)cc3)N(Nc3ccccc3F)C2C(=O)N1c1ccccc1 (stereo unspecified)	inactive
